Data provenance: the supplement of paper PMC10567573

Exercise: for every item that follows, state its recorded protein stability index.
B1: IKZF1 (parent)
chain: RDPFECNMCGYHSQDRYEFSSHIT

Variants of: B1
Test: protein stability index of a GFP-peptide fusion (GPS, HEK-293T) (PSI 1-6); higher = more stable;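 also: lentivirally expressed fusions sorted by FACS into six bins by GFP to DsRed ratio, PSI derived from sequencing read proportions per bin multiplied by bin number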
Conditions: c terminus: a fixed tail appended
Numbers only.

1. RDPFECNMCGYHSQDRYEFSSMIT | 1.79
2. RDPFECNDCGYHSQDRYEFSSHIT | 3.11
3. RDPFECNMCGYHSTDRYEFSSHIT | 2.17
4. RDPFECNMCKYHSQDRYEFSSHIT | 2.32
5. EDPFECNMCGYHSQDRYEFSSHIT | 2.67
6. RDPFECNMCGYHSQDREEFSSHIT | 3

Would you be so kind as to report protein stability index for each listed record?
1. RDPFECNMCGYHSQDRYEFSSRIT
2. RDPFECNMCGYHSQDRYVFSSHIT
3. RDPFECNMCGYHSQDRYQFSSHIT
4. RDNFECNMCGYHSQDRYEFSSHIT
5. RDLFECNMCGYHSQDRYEFSSHIT

Result:
1.58
2.72
1.79
1.94
1.68
